Biological target: Acetylcholinesterase (Homo sapiens)
Experiment: Acetylcholinesterase (AChE) small molecule antagonists: fluorescence cell-based qHTS assay (AID 1347398); further: nearly all actives have a fitted effect of over 50% in size
Details: SH-SY5Y cells; AChE activity; series mostly up to 115 µM
Results filed as inconclusive are left out. Activity calls are given as the source filed them. The call rests on the fitted dose curve.
quantity measured: outcome

compound=CC(C)CCCCCCN result=inactive
compound=CN(C)CCN(C)CCN(C)C result=inactive
compound=O=C(NCCc1c[nH]c2ccccc12)c1cccnc1 result=inactive
compound=CCCC(CCC)(C(=O)OCC)C(=O)OCC result=inactive
compound=CC1=C(/C=C/C(C)=C/C=C/C(C)=C/CO)C(C)(C)CCC1 result=inactive
compound=c1cc[nH]c1 result=inactive
compound=C=Cc1ccccc1C=C result=inactive
compound=NC(=O)N1c2ccccc2C=Cc2ccccc21 result=inactive
compound="CCCC(C)CC (centres undefined)" result=inactive
compound=Oc1ccc(Oc2ccccc2)cc1 result=inactive
compound="Cc1ccccc1OCC(O)CO (centres undefined)" result=inactive
compound=COc1cc(C(=S)N2CCOCC2)cc(OC)c1OC result=inactive
compound=O=c1cc(-c2ccccc2)oc2cc(O)cc(O)c12 result=inactive
compound=C[C@H](N)[C@H](O)c1cccc(O)c1 result=inactive
compound=COc1ccc(S(=O)(=O)Nc2nnc(CC(C)C)s2)cc1 result=inactive
compound=C=C(C)C(=O)OCCOP(=O)(O)O result=inactive
compound=CC(C)(Oc1ccc(CCNC(=O)c2ccc(Cl)cc2)cc1)C(=O)O result=inactive
compound=CCOC(=O)NCCOc1ccc(Oc2ccccc2)cc1 result=inactive
compound=OC1CCCCCCCCCCC1 result=inactive
compound=CC(=O)CC(=O)Nc1ccc(S(=O)(=O)O)cc1 result=inactive
compound=COCCCN result=inactive
compound=CC(C)Nc1cccnc1N1CCN(C(=O)c2cc3cc(NS(C)(=O)=O)ccc3[nH]2)CC1 result=inactive
compound=O=C1[C@@H]2[C@H]3CC[C@H](C3)[C@@H]2C(=O)N1CCCCN1CCN(c2ncccn2)CC1 result=inactive
compound="COc1ccc(OC)c(C(O)CNC(=O)CN)c1 (centres undefined)" result=inactive
compound=CCOC(=O)N1CCC(n2c(=O)[nH]c3cc(Cl)ccc32)CC1 result=inactive
compound=O=Cc1ccc(CO)o1 result=inactive
compound=C[C@H]1C[C@H](O)c2ccsc2S1(=O)=O result=inactive
compound="CCC(=O)OC(C)c1ccccc1 (centres undefined)" result=inactive
compound=COc1ccc(/C(C)=C/C(=O)O)c(OC)c1 result=inactive

----------
Experiment: qHTS assay to identify small molecule agonists of the estrogen related receptor (ERR) signaling pathway from Tox21 library (AID 1224849); further: nearly all actives have a fitted effect of over 15% in size
Conditions: ERR reporter cell line, ONE-Glo luciferase, 18 h; at 92.4 µM (top of the series) unless noted
The source made the active and inactive calls. Calls come from the whole dose curve.
Outcomes: active, inactive

compound=O=S(=O)(C(Cl)(Cl)Cl)C(Cl)(Cl)Cl label_class=inactive
compound=Cc1cccc(C)c1 label_class=inactive
compound=O=C1OC(=O)c2c(Cl)c(Cl)c(Cl)c(Cl)c21 label_class=inactive
compound=Oc1c(I)cc(I)cc1I label_class=inactive
compound=Brc1ccccc1-c1ccccc1 label_class=inactive
compound=Cc1cc(C)c(C(=O)P(=O)(c2ccccc2)c2ccccc2)c(C)c1 label_class=inactive
compound="CCC1C(=O)OCC1Cc1cncn1C (configuration not stated)" label_class=inactive
compound=Cc1ccc([N+](=O)[O-])c(C)c1 label_class=inactive
compound="CC1COC(Cn2cncn2)(c2ccc(Oc3ccc(Cl)cc3)cc2Cl)O1 (configuration not stated)" label_class=inactive
compound=Nc1ccc(N)c2ccccc12 label_class=inactive
compound=COc1cc(OC)c(OC)cc1C=O label_class=inactive
compound=O=[N+]([O-])c1c(Cl)c(Cl)cc(Cl)c1Cl label_class=inactive
compound=CO/C=C(/C(=O)OC)c1ccccc1Oc1cc(Oc2ccccc2C#N)ncn1 label_class=inactive
compound="CC(CCl)OP(=O)(OC(C)CCl)OC(C)CCl (configuration not stated)" label_class=inactive
compound=N#Cc1cc([N+](=O)[O-])ccc1N label_class=inactive
compound="CCCCC(CC)COC(=O)c1ccc(C(=O)OCC(CC)CCCC)cc1 (configuration not stated)" label_class=inactive
compound=Brc1cc(Br)cc(Br)c1 label_class=inactive
compound=CC(c1ccccc1)(c1ccc(O)cc1)c1ccc(O)cc1 label_class=inactive
compound=CCc1cccc(C)c1N label_class=inactive
compound=Cc1ccc(N(SC(F)(Cl)Cl)S(=O)(=O)N(C)C)cc1 label_class=inactive
compound="c1ccc2c(c1)Sc1ccccc1N2CC1CN2CCC1CC2 (configuration not stated)" label_class=inactive
compound=Nc1ccc(Cl)cc1Cl label_class=inactive
compound=O=Nc1ccc(Nc2ccccc2)cc1 label_class=active
compound="Cc1nnc2n1-c1sc(CCc3ccc(CC(C)C)cc3)cc1C(c1ccccc1Cl)=NC2C (configuration not stated)" label_class=inactive
compound=Cc1cc(C(C)(C)c2ccc(O)c(C)c2)ccc1O label_class=inactive
compound=O=C(c1ccccc1)C(Cl)Cl label_class=inactive
compound=CNc1ccccc1 label_class=inactive
